- System: NOMO1
- assay explanation: cell viability relative to DMSO control; higher = less cytotoxic
- condition details: RPMI 5 mM glucose + 10% FBS; 48 h; 0.0632 µM
Would you mind telling me the reported cell viability of each entry?
Form entry: value (%) — number only.

Prompt line: Fill in: cell viability of OCc1ccc(-c2nn(Cc3ccccc3)c3ccccc23)o1 is ___
Response line: 95.4

Prompt line: Fill in: cell viability of CCOC(=O)N1CCN(/[N+]([O-])=N/Oc2ccc([N+](=O)[O-])cc2[N+](=O)[O-])CC1 is ___
Response line: 89.2

Prompt line: Fill in: cell viability of CCOC(=O)[C@H](CCc1ccccc1)N[C@@H](C)C(=O)N1CCC[C@H]1C(=O)O is ___
Response line: 102

Prompt line: Fill in: cell viability of C1CCC(C(CC2CCCCN2)C2CCCCC2)CC1 (centres undefined) is ___
Response line: 116

Prompt line: Fill in: cell viability of ClC1=CC(=CC=C1)N2CCN(CCCN3\N=C4\C=C/C=C\N4C3=O)CC2 is ___
Response line: 126

Prompt line: Fill in: cell viability of CC(C)Nc1cc(C(F)(F)F)cc2nc(NC(=O)c3cccnc3)nn12 is ___
Response line: 98.1

Prompt line: Fill in: cell viability of COc1cc2c(Oc3ccc(NC(=O)C4(C(=O)Nc5ccc(F)cc5)CC4)cc3F)ccnc2cc1OCCCN1CCOCC1 is ___
Response line: 85.8

Prompt line: Fill in: cell viability of COc1cc(O)c2c(c1)C1OC1C[C@H](O)[C@H](O)C(=O)/C=C\C[C@H](C)OC2=O (some centres undefined) is ___
Response line: 105

Prompt line: Fill in: cell viability of Cc1cc(Nc2nc(N[C@@H](C)c3ncc(F)cn3)ncc2Cl)n[nH]1 is ___
Response line: 114

* * *

- Test system: NOMO1
- assay explanation: cell viability relative to DMSO control; higher = less cytotoxic
- condition details: RPMI 5 mM glucose + 10% FBS; 48 h; 0.19 µM
measured metric: cell viability (%)
Form entry: value (%) — number only.

Prompt line: Fill in: cell viability of OC[C@H](Cc1ccccc1)Nc1nc(Oc2ccc3c(c2)CCC3)nc2c1ncn2Cc1ccc(-c2ccccc2)cc1 is ___
Response line: 89.7

Prompt line: Fill in: cell viability of O=C(O)c1ccc(-n2nc(-c3ccccc3O)nc2-c2ccccc2O)cc1 is ___
Response line: 96.3

Prompt line: Fill in: cell viability of C[C@H]1C[C@H]2[C@@H]3CCC4=CC(=O)C=C[C@]4(C)[C@@]3(F)[C@@H](O)C[C@]2(C)[C@@]1(O)C(=O)CO is ___
Response line: 133

Prompt line: Fill in: cell viability of CC(=O)Nc1ccc([C@H](C)C(=O)Nc2ncc(C(C)C)s2)cc1 is ___
Response line: 93.6

Prompt line: Fill in: cell viability of CCC(=O)OCC(=O)[C@@]1(OC(=O)CC)[C@@H](C)C[C@H]2[C@@H]3CCC4=CC(=O)C=C[C@]4(C)[C@@]3(F)[C@@H](O)C[C@@]21C is ___
Response line: 105

Prompt line: Fill in: cell viability of CC(C)(C)C(=O)Oc1ccc([S+](=O)([O-])Nc2ccccc2C(=O)NCC(=O)O)cc1 is ___
Response line: 108

Prompt line: Fill in: cell viability of C1CCC(C(CC2CCCCN2)C2CCCCC2)CC1 (stereo not drawn) is ___
Response line: 122

Prompt line: Fill in: cell viability of CC(=O)O[C@@]1(CC[C@H]2[C@@H]3\C=C(C)/C4=C/C(=O)CC[C@]4(C)[C@H]3CC[C@]12C)C(C)=O is ___
Response line: 108

* * *

- Tested on: SEM cells
- assay explanation: cell viability relative to DMSO control; higher = less cytotoxic
- condition details: HPLM + 10% dialyzed FBS; 48 h; 0.000781 µM
Would you mind telling me the reported cell viability of each entry?
Form entry: value (%) — number only.

Prompt line: Fill in: cell viability of c1cc(CN2CCCNCCNCCCNCC2)ccc1CN1CCCNCCNCCCNCC1 is ___
Response line: 83.6

Prompt line: Fill in: cell viability of Cc1cccc(C#Cc2ccccc2)n1 is ___
Response line: 119

Prompt line: Fill in: cell viability of CC1(C)C(=O)N(CCN2CCC(C(=O)c3ccc(F)cc3)CC2)c2ccccc21 is ___
Response line: 92.5

Prompt line: Fill in: cell viability of CC1=CC=CC=C1CN2C(=O)C/3=C(/CCN(CC4=CC=CC=C4)C3)N\5CC\N=C25 is ___
Response line: 113

Prompt line: Fill in: cell viability of CC(=O)NC(CS)C(=O)O (stereo not drawn) is ___
Response line: 71.5

Prompt line: Fill in: cell viability of CC[C@H]1/C=C\C=C/C[C@@H](C)[C@H](O)[C@@](C)(O)C(=O)[C@@H](C)[C@H](O)[C@@H](C)C(=O)[C@@H](C)[C@H](O)[C@@H](C)/C=C/C(=O)O[C@@H]2[C@H](C)[C@H](CC1)O[C@]1(CC[C@H](C)[C@H](C[C@@H](C)O)O1)[C@H]2C is ___
Response line: 78.7

Prompt line: Fill in: cell viability of CC(=O)OCC(=O)[C@@]12\N=C(C)/O[C@@H]1C[C@H]3[C@@H]4CCC/5=C/C(=O)/C=C\[C@]5(C)[C@H]4[C@@H](O)C[C@]23C is ___
Response line: 75.3

Prompt line: Fill in: cell viability of N=C(N)NC(=O)c1nc(Cl)c(N)nc1N is ___
Response line: 101

* * *

- System: P12-Ichikawa
- assay explanation: cell viability relative to DMSO control; higher = less cytotoxic
- condition details: RPMI 5 mM glucose + 10% dialyzed FBS; 48 h; 0.00234 µM
Would you mind telling me the reported cell viability of each entry?
Form entry: value (%) — number only.

Prompt line: Fill in: cell viability of C[C@@]12O[C@@H](C[C@]1(O)CO)n1c3ccccc3c3c4c(c5c6ccccc6n2c5c31)CNC4=O is ___
Response line: 109

Prompt line: Fill in: cell viability of O=C1Nc2ccc(Cl)cc2[C@@](C#CC2CC2)(C(F)(F)F)O1 is ___
Response line: 77.7

Prompt line: Fill in: cell viability of Clc1cc(Cl)cc(CNc2ncncc2-c2ccc3c(c2)OCO3)c1 is ___
Response line: 96.6

Prompt line: Fill in: cell viability of COC[C@@H](NC(C)=O)C(=O)NCc1ccccc1 is ___
Response line: 118

Prompt line: Fill in: cell viability of O=C(NC[C@H](O)CN1CCc2ccccc2C1)c1cc(NC2COC2)ncn1 is ___
Response line: 88.6

Prompt line: Fill in: cell viability of CN(C)C(=O)c1ccc([S+](=O)([O-])c2ccc(NC(=O)[C@@](C)(O)C(F)(F)F)c(Cl)c2)cc1 is ___
Response line: 110

Prompt line: Fill in: cell viability of C[N+]1(C)[C@@H]2C[C@@H](OC(=O)[C@H](CO)c3ccccc3)C[C@H]1[C@@H]1O[C@@H]12.[Br-] is ___
Response line: 47.6

Prompt line: Fill in: cell viability of O=C(NC[C@H]1CN(c2ccc(N3CCOCC3=O)cc2)C(=O)O1)c1ccc(Cl)s1 is ___
Response line: 119

Prompt line: Fill in: cell viability of O=C(O)c1ccc(-n2nc(-c3ccccc3O)nc2-c2ccccc2O)cc1 is ___
Response line: 103

Prompt line: Fill in: cell viability of O=C(/C=C/c1c(C(=O)[O-])[nH]c2cc(Cl)cc(Cl)c12)Nc1ccccc1 is ___
Response line: 99.5

Prompt line: Fill in: cell viability of CCOc1ccc(Nc2nc(-c3c(C)nc4ccccn34)cs2)cc1 is ___
Response line: 116

* * *

Would you mind telling me the reported cell viability of each entry?
- Test system: NOMO1
- assay explanation: cell viability relative to DMSO control; higher = less cytotoxic
- condition details: RPMI 5 mM glucose + 10% FBS; 48 h; 1.71 µM
Answer with the number, then the unit.

Prompt line: Param readout = cell viability; param system = NOMO1; param query = COc1cc(C)c(Sc2cnc(NC(=O)c3ccc(CNC(C)C(C)(C)C)cc3)s2)cc1C(=O)N1CCN(C(C)=O)CC1 (stereo not given) ; response: value
Response line: 115%

Prompt line: Param readout = cell viability; param system = NOMO1; param query = Cn1cc(-c2ccc3nnc(C(F)(F)c4ccc5ncccc5c4)n3n2)cn1 ; response: value
Response line: 94.9%

Prompt line: Param readout = cell viability; param system = NOMO1; param query = C[C@@]12O[C@@H](C[C@]1(O)CO)n1c3ccccc3c3c4c(c5c6ccccc6n2c5c31)CNC4=O ; response: value
Response line: 42.3%

Prompt line: Param readout = cell viability; param system = NOMO1; param query = CCN(CC)CCCCNc1nc2cc(Cl)c(Cl)cc2nc1-c1ccc(-c2cccs2)s1 ; response: value
Response line: 102%

Prompt line: Param readout = cell viability; param system = NOMO1; param query = [NH2][Pt]([NH2])([Cl])[Cl] ; response: value
Response line: 88.1%
